Biological target: Microtubule-associated protein tau (Homo sapiens, UniProt P10636)
Sequence (P10636 whole entry): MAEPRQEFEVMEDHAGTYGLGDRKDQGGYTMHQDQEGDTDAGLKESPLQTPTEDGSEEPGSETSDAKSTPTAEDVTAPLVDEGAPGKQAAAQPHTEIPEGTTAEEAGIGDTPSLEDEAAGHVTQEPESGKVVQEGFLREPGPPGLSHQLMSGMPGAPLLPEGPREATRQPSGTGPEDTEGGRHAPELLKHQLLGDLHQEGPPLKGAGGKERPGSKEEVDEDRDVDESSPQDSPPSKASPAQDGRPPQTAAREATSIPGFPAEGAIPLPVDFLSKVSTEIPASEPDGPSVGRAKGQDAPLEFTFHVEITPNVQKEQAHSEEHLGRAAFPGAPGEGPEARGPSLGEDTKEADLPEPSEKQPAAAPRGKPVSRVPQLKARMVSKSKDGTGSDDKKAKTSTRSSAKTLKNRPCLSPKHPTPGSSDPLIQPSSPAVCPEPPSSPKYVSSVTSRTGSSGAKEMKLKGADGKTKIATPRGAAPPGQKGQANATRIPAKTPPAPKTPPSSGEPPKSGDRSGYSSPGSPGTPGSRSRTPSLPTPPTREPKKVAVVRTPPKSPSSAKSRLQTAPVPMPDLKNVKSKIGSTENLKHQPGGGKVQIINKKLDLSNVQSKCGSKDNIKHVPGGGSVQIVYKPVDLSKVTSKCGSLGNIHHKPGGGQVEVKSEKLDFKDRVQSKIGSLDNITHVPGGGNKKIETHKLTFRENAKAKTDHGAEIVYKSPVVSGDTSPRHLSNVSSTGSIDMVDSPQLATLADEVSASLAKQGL
Experiment: Inhibition of human full length recombinant tau-441 expressed in Escherichia coli assessed as inhibition of heparin-induced protein aggregation by measuring reduction in fibrillization by measuring reduction in short and long filaments and fibrillar network formation at 120 uM incubated for 72 hrs by transmission electron microscopy
Activity calls are given as the source filed them. The calls are words filed in the database; no cut-off is given here.
attribute.measured: inhibition

Examples with their reported inhibition follow.
{"chemical.structure": "CCCN(CCN1CCN(c2ccc(-c3ccc(O)c(O)c3)cc2)CC1)[C@H]1CCc2c(O)cccc2C1", "inhibition": "Active"}
{"chemical.structure": "CN(C)c1ccc2nc3ccc(=[N+](C)C)cc-3sc2c1", "inhibition": "Active"}
{"chemical.structure": "CCCN(CCN1CCN(c2ccc3[nH]c4ccccc4c3c2)CC1)[C@H]1CCc2nc(N)sc2C1", "inhibition": "inactive"}
{"chemical.structure": "CCCN(CCN1CCN(c2ccc(-c3ccc(O)c(O)c3)cc2)CC1)[C@H]1CCc2nc(N)sc2C1", "inhibition": "Active"}

Moving on to the next compound.
Consider the compound CCCN(CCN1CCN(c2ccc(-c3ccccc3)cc2)CC1)[C@H]1CCc2nc(N)sc2C1 . State its measured inhibition.
inactive

---

Biological target: Microtubule-associated protein tau (Homo sapiens, UniProt P10636)
Experiment: Inhibition of human full length recombinant tau-441 expressed in Escherichia coli assessed as inhibition of heparin-induced protein aggregation by measuring reduction in fluorescence intensity incubated for 72 hrs by Proteo-stat fluorescence aggregation assay
Conditions: read-out: IC50
attribute.measured: IC50 (µM)

{"chemical.structure": "CCCN(CCN1CCN(c2ccc(-c3ccc(O)c(O)c3)cc2)CC1)[C@H]1CCc2nc(N)sc2C1", "IC50 (µM)": 21}
{"chemical.structure": "CCCN(CCN1CCN(c2ccc(-c3ccc(O)c(O)c3)cc2)CC1)[C@H]1CCc2c(O)cccc2C1", "IC50 (µM)": 25}

---

Molecular target: Microtubule-associated protein tau (Homo sapiens, UniProt P10636)
Assay: Inhibition of human full length recombinant tau-441 expressed in Escherichia coli assessed as inhibition of heparin-induced beta-sheet formation and protein aggregation by measuring fluorescence intensity at 120 uM incubated for 72 hrs by Proteo-stat fluorescence aggregation assay
attribute.measured: Activity (a.u.)

These recorded examples may help you get a feel for the data.
{"chemical.structure": "CCCN(CCN1CCN(c2ccc(-c3ccccc3)cc2)CC1)[C@H]1CCc2nc(N)sc2C1", "u": "a.u.", "Activity": 9000}
{"chemical.structure": "CCCN(CCN1CCN(c2ccc(-c3ccc(O)c(O)c3)cc2)CC1)[C@H]1CCc2nc(N)sc2C1", "u": "a.u.", "Activity": 1000}
{"chemical.structure": "CN(C)c1ccc2nc3ccc(=[N+](C)C)cc-3sc2c1", "u": "a.u.", "Activity": 1000}

[1] CCCN(CCN1CCN(c2ccc(-c3ccc(O)c(O)c3)cc2)CC1)[C@H]1CCc2c(O)cccc2C1
[2] CCCN(CCN1CCN(c2ccc3[nH]c4ccccc4c3c2)CC1)[C@H]1CCc2nc(N)sc2C1
Between 1 and 2 , whose measured Activity reads higher? Which one? Tell me its label.
2
(2: 7000 a.u., 1: 1000 a.u.)

---

Target: Microtubule-associated protein tau (Homo sapiens, UniProt P10636)
Assay: Displacement of Bis-ANS from solvent exposed hydrophobic site of non-aggregated human full length recombinant tau-441 expressed in Escherichia coli assessed as reduction in fluorescence intensity at 120 uM incubated for 72 hrs by Bis-ANS fluorescence assay
Activity calls are given as the source filed them. The calls are words filed in the database; no cut-off is given here.
One label from this list, please: active, inactive

Some entries whose results are on file:
{"chemical.structure": "CCCN(CCN1CCN(c2ccc(-c3ccc(O)c(O)c3)cc2)CC1)[C@H]1CCc2c(O)cccc2C1", "subject.of.test": "Microtubule-associated protein tau (Homo sapiens, UniProt P10636)", "cat": "active"}
{"chemical.structure": "CCCN(CCN1CCN(c2ccc(-c3ccccc3)cc2)CC1)[C@H]1CCc2nc(N)sc2C1", "subject.of.test": "Microtubule-associated protein tau (Homo sapiens, UniProt P10636)", "cat": "inactive"}
{"chemical.structure": "CCCN(CCN1CCN(c2ccc(-c3ccc(O)c(O)c3)cc2)CC1)[C@H]1CCc2nc(N)sc2C1", "subject.of.test": "Microtubule-associated protein tau (Homo sapiens, UniProt P10636)", "cat": "active"}

Moving on to the next compound.
For CCCN(CCN1CCN(c2ccc3[nH]c4ccccc4c3c2)CC1)[C@H]1CCc2nc(N)sc2C1 , what call appears in the results of this test?
inactive
